# recorded conditions: in water, 303 K
endpoint label: solubility (mole fraction)

Provide solubility (mole fraction) value for the following compound: O=P1(c2cc(O)ccc2O)Oc2ccccc2-c2ccccc21 (stereo unspecified)
0.000139

* * *

# recorded conditions: in water, 307.95 K
endpoint label: solubility (mole fraction)
Simply state the number, no unit and no words.

Provide solubility (mole fraction) value for the following molecule: O=P1(c2cc(O)ccc2O)Oc2ccccc2-c2ccccc21 (stereo unspecified)
0.000143

* * *

# recorded conditions: in 2-ethoxyethanol, 302.98 K
endpoint label: solubility (mole fraction)
Simply state the number, no unit and no words.

Provide solubility (mole fraction) value for the following molecule: O=P1(c2cc(O)ccc2O)Oc2ccccc2-c2ccccc21 (stereo unspecified)
0.00157

* * *

# recorded conditions: in acetone, 317.65 K
endpoint label: solubility (mole fraction)
Simply state the number, no unit and no words.

Provide solubility (mole fraction) value for the following compound: O=P1(c2cc(O)ccc2O)Oc2ccccc2-c2ccccc21 (stereo unspecified)
0.00427

* * *

# recorded conditions: in acetone, 322.6 K
endpoint label: solubility (mole fraction)
Simply state the number, no unit and no words.

Provide solubility (mole fraction) value for the following compound: O=P1(c2cc(O)ccc2O)Oc2ccccc2-c2ccccc21 (stereo unspecified)
0.00551

* * *

# recorded conditions: in 2-ethoxyethanol, 337.6 K
endpoint label: solubility (mole fraction)
Simply state the number, no unit and no words.

Provide solubility (mole fraction) value for the following molecule: O=P1(c2cc(O)ccc2O)Oc2ccccc2-c2ccccc21 (stereo unspecified)
0.00896

* * *

# recorded conditions: in water, 322.45 K
endpoint label: solubility (mole fraction)
Simply state the number, no unit and no words.

Provide solubility (mole fraction) value for the following compound: O=P1(c2cc(O)ccc2O)Oc2ccccc2-c2ccccc21 (stereo unspecified)
0.000165

* * *

# recorded conditions: in 2-ethoxyethanol, 308 K
endpoint label: solubility (mole fraction)
Simply state the number, no unit and no words.

Provide solubility (mole fraction) value for the following compound: O=P1(c2cc(O)ccc2O)Oc2ccccc2-c2ccccc21 (stereo unspecified)
0.00207

* * *

# recorded conditions: in 2-ethoxyethanol, 322.7 K
endpoint label: solubility (mole fraction)
Simply state the number, no unit and no words.

Provide solubility (mole fraction) value for the following compound: O=P1(c2cc(O)ccc2O)Oc2ccccc2-c2ccccc21 (stereo unspecified)
0.00439

* * *

# recorded conditions: in water, 312.85 K
endpoint label: solubility (mole fraction)
Simply state the number, no unit and no words.

Provide solubility (mole fraction) value for the following molecule: O=P1(c2cc(O)ccc2O)Oc2ccccc2-c2ccccc21 (stereo unspecified)
0.000151

* * *

# recorded conditions: in 2-ethoxyethanol, 332.65 K
endpoint label: solubility (mole fraction)
Simply state the number, no unit and no words.

Provide solubility (mole fraction) value for the following molecule: O=P1(c2cc(O)ccc2O)Oc2ccccc2-c2ccccc21 (stereo unspecified)
0.00702

* * *

# recorded conditions: in water, 337.55 K
endpoint label: solubility (mole fraction)
Simply state the number, no unit and no words.

Provide solubility (mole fraction) value for the following compound: O=P1(c2cc(O)ccc2O)Oc2ccccc2-c2ccccc21 (stereo unspecified)
0.000184

* * *

# recorded conditions: in ethanol, 312.95 K
endpoint label: solubility (mole fraction)

Provide solubility (mole fraction) value for the following molecule: O=P1(c2cc(O)ccc2O)Oc2ccccc2-c2ccccc21 (stereo unspecified)
0.00282

* * *

# recorded conditions: in acetone, 307.85 K
endpoint label: solubility (mole fraction)
Simply state the number, no unit and no words.

Provide solubility (mole fraction) value for the following compound: O=P1(c2cc(O)ccc2O)Oc2ccccc2-c2ccccc21 (stereo unspecified)
0.00304
